# ASSAYED TARGET: Methionyl-tRNA synthetase (Enterococcus faecalis)
# ASSAY NAME: Inhibitory activity against Enterococci faecalis methionyl-tRNA synthetase (EfMetRS)
METRIC: IC50 (µM)

{"columns": ["MOLECULE SMILES", "RESULT VALUE"],
 "data": [
  ["O=C(O)c1cc(-c2ccc(-c3ccc(Cl)cc3Cl)cc2)n(CCO)n1", 11.4]
]}

a: O=C(O)c1cc(-c2ccc(-c3ccc(Cl)cc3Cl)cc2)n(-c2ccccn2)n1
b: O=C(O)c1cc(-c2ccc(-c3ccc(Cl)cc3Cl)cc2)n(-c2ccc(Cl)cc2Cl)n1
c: O=C(O)c1cc(-c2ccc(-c3ccc(Cl)cc3Cl)cc2)n(Cc2ccccc2)n1
d: O=C(NCc1nnn[nH]1)c1cc(-c2ccc(-c3ccc(Cl)cc3Cl)cc2)n(-c2cccnc2)n1
e: COc1ccccc1-n1nc(C(=O)O)cc1-c1ccc(-c2ccc(Cl)cc2Cl)cc1
Task: Sort the molecules on IC50; start with the lowest figure. Returns: the labels arranged in the requested order.
Output: a, d, b, e, c
(a: 1.93 µM, d: 3.7 µM, b: 8.99 µM, e: 17.8 µM, c: 29.9 µM)

====

# ASSAYED TARGET: Methionyl-tRNA synthetase (Staphylococcus aureus)
# ASSAY NAME: Inhibitory activity against Staphylococcus aureus methionyl-tRNA synthetase (SaMetRS)
pIC50: −log10 of the molar value.
METRIC: pIC50

These recorded examples may help you get a feel for the data.
{"columns": ["MOLECULE SMILES", "pIC50"],
 "data": [
  ["O=C(O)c1cc(-c2ccc(-c3ccc(F)c(Cl)c3)cc2)n(-c2ccc(Cl)cc2Cl)n1", 4.76],
  ["O=C(O)c1cc(-c2ccc(-c3ccc(Cl)cc3Cl)cc2)nn1Cc1ccccn1", 5.57],
  ["O=C(O)c1cc(-c2ccc(-c3ccc(Cl)cc3Cl)cc2)n(Cc2cccnc2)n1", 6.18]
]}

I: O=C(O)c1cc(-c2ccc(-c3ccc(Cl)cc3Cl)cc2)n(-c2ccccc2)n1
II: O=C(O)c1cc(-c2ccc(-c3ccccc3)cc2)n(-c2ccc(Cl)cc2Cl)n1
Task: # argmax over pIC50 for candidates I and II Your answer should be the label of the entry you select.
Output: I

a: O=C(O)c1cc(-c2ccc(-c3ccc(Cl)cc3Cl)cc2)n(-c2ccc(Cl)cc2Cl)n1
b: O=C(O)c1cc(-c2ccc(-c3ccc(Cl)cc3Cl)cc2)n(Cc2ccncc2)n1
Task: # argmax over pIC50 for candidates a and b Your answer should be the label of the entry you select.
Output: b
(b: 6.30, a: 5.31)

====

# ASSAYED TARGET: Methionyl-tRNA synthetase (Staphylococcus aureus)
# ASSAY NAME: Inhibitory activity against Staphylococcus aureus methionyl-tRNA synthetase (SaMetRS)
METRIC: IC50 (µM)

These recorded examples may help you get a feel for the data.
{"columns": ["MOLECULE SMILES", "METRIC", "UNITS OF MEASURE", "RESULT VALUE"],
 "data": [
  ["O=C(O)c1cc(-c2ccc(-c3ccc(Cl)cc3Cl)cc2)n(Cc2ccccc2)n1", "IC50", "µM", 3.94],
  ["O=C(O)Cn1nc(C(=O)O)cc1-c1ccc(-c2ccc(Cl)cc2Cl)cc1", "IC50", "µM", 3.42]
]}

I: CCn1nc(C(=O)O)cc1-c1ccc(-c2ccc(Cl)cc2Cl)cc1
II: COc1ccc(-n2nc(C(=O)O)cc2-c2ccc(-c3ccc(Cl)cc3Cl)cc2)cc1
III: COc1ccccc1-n1nc(C(=O)O)cc1-c1ccc(-c2ccc(Cl)cc2Cl)cc1
Task: Task field, ranking: reported IC50, descending order. Returns: the labels arranged in the requested order.
Output: II, III, I

====

# ASSAYED TARGET: Methionyl-tRNA synthetase (Staphylococcus aureus)
# ASSAY NAME: Inhibitory activity against Staphylococcus aureus methionyl-tRNA synthetase (SaMetRS)
pIC50: −log10 of the molar value.
METRIC: pIC50

{"columns": ["MOLECULE SMILES", "ASSAYED TARGET", "METRIC", "RESULT VALUE"],
 "data": [
  ["O=C(O)c1cc(-c2ccc(-c3ccc(Cl)cc3Cl)cc2)n(CCO)n1", "Methionyl-tRNA synthetase (Staphylococcus aureus)", "pIC50", 5.35]
]}

P: O=C(O)c1cc(-c2ccc(-c3ccc(Cl)cc3Cl)cc2)n(-c2ccccn2)n1
Q: NC(=O)c1cc(-c2ccc(-c3ccc(Cl)cc3Cl)cc2)n(-c2ccccn2)n1
R: O=C(NCc1nnn[nH]1)c1cc(-c2ccc(-c3ccc(Cl)cc3Cl)cc2)n(-c2cccnc2)n1
S: O=C(O)c1cc(-c2ccc(-c3ccc(Cl)cc3Cl)cc2)n(-c2cccnc2)n1
Task: Task field, ranking: reported pIC50, descending order. Returns: the labels arranged in the requested order.
Output: R, S, P, Q

The measurements presented in this section are drawn from BindingDB's records for doi:10.1016/s0960-894x(03)00298-1.
